Organism: Rattus norvegicus
Measurement description: Open TG-GATES - Regimen: Single
Assay type: toxicity, organism-based, Sprague-Dawley
Design: regimen Single, gender Male, age 6 weeks
Run conditions: in vivo, po, 0 mg/kg, 9 h, tissue Blood, route gavage, dose level Control
Quantity measured: Hb (g/dL)
Form entry: value (g/dL) — number only.

Check out these entries, answers already filled in.
CC(C)C(=O)Nc1ccc([N+](=O)[O-])c(C(F)(F)F)c1 [FLUTAMIDE]: 13.4
CCN1CCCC1CNC(=O)c1cc(S(N)(=O)=O)ccc1OC (centres undefined) [SULPIRIDE]: 13.3
CC(C)(S)[C@@H](N)C(=O)O: 13.5
C#C[C@]1(O)CC[C@H]2[C@@H]3CCc4cc(O)ccc4[C@H]3CC[C@@]21C: 12.8
CCC(C)(C)C(=O)O[C@H]1C[C@@H](C)C=C2C=C[C@H](C)[C@H](CC[C@@H]3C[C@@H](O)CC(=O)O3)[C@H]21: 13.2

### Prompt Form field: reported Hb of `C[C@]12CCC(=O)C=C1CC[C@@H]1[C@@H]2CC[C@@]2(C)[C@H]1CC[C@]2(C)O`
### Response 13.2

### Prompt Form field: reported Hb of `Nc1nc(N)c2nc(-c3ccccc3)c(N)nc2n1`
### Response 13.6

### Prompt Form field: reported Hb of `CCSCC[C@H](N)C(=O)O`
### Response 13

### Prompt Form field: reported Hb of `C[C@](N)(Cc1ccc(O)c(O)c1)C(=O)O`
### Response 12.7

---

Organism: Rattus norvegicus
Measurement description: Open TG-GATES - Regimen: Daily Repeat
Format: toxicity, organism-based, Sprague-Dawley
Set-up: regimen Daily Repeat, gender Male, age 6 weeks
Run conditions: in vivo, po, 0 mg/kg, […], tissue Plasma, route gavage, dose level Control, time 7 day
Entries and their BUN
Form entry: value (mg/dL) — number only.

Check out these entries, answers already filled in.
C[C@]12CCC(=O)C=C1CC[C@@H]1[C@@H]2CC[C@@]2(C)[C@H]1CC[C@]2(C)O [METHYLTESTOSTERONE]: 16.4
C[C@](N)(Cc1ccc(O)c(O)c1)C(=O)O [METHYLDOPA]: 15.6
CN1C(=O)OC(C)(C)C1=O [TRIMETHADIONE]: 16.8

### Prompt Form field: reported BUN of O=C(N[C@H](CO)[C@H](O)c1ccc([N+](=O)[O-])cc1)C(Cl)Cl [CHLORAMPHENICOL]
### Response 15.4

### Prompt Form field: reported BUN of CC(=O)Oc1cc(C(C)C)c(OCCN(C)C)cc1C [MOXISYLYTE]
### Response 18

### Prompt Form field: reported BUN of CC(=N)S [THIOACETAMIDE]
### Response 19.4

### Prompt Form field: reported BUN of CC(C)C(=O)Nc1ccc([N+](=O)[O-])c(C(F)(F)F)c1 [FLUTAMIDE]
### Response 15.6

### Prompt Form field: reported BUN of `Nc1nc(N)c2nc(-c3ccccc3)c(N)nc2n1`
### Response 16.2

### Prompt Form field: reported BUN of CCN1CCCC1CNC(=O)c1cc(S(N)(=O)=O)ccc1OC (stereo not drawn) [SULPIRIDE]
### Response 16

### Prompt Form field: reported BUN of CCc1oc2ccccc2c1C(=O)c1cc(I)c(O)c(I)c1 [BENZIODARONE]
### Response 19.2

### Prompt Form field: reported BUN of Oc1ncnc2[nH]ncc12 [ALLOPURINOL]
### Response 22.4

### Prompt Form field: reported BUN of CCSCC[C@H](N)C(=O)O [ETHIONINE]
### Response 16.8

### Prompt Form field: reported BUN of CC(C)(S)[C@@H](N)C(=O)O [PENICILLAMINE]
### Response 15
